Target or test system: human FPR1 (Homo sapiens (Human), UniProt P21462)
Sequence (P21462 whole entry): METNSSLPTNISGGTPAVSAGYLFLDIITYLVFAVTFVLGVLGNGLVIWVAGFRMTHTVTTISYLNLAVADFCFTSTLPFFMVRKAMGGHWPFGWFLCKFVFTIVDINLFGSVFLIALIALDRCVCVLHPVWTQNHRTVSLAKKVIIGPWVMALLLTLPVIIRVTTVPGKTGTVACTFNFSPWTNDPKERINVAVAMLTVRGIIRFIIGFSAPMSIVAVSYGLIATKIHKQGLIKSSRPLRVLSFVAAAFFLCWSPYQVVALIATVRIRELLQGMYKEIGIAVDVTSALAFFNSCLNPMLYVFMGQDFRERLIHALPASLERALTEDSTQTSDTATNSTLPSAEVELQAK
Assay info: FPR1 cyclic adenosine monophosphate (cAMP) assay
Condition context: CHO cells overexpressing human FPR1; inhibition of forskolin (10 μM) stimulated cAMP; read-out: hFPR1 cAMP EC50
Our labelling divides records by EC50 into ranges: L: < 100 nM; M: ≥ 100 nM and < 400 nM; H: ≥ 400 nM

>>> print(df.to_string())
                                    compound  class_name
 0  COc1cc(-c2ccccc2NS(C)(=O)=O)ccc1N1CCC[C@@H](NC(=O)Nc2ccc(C(F)(F)F)cn2)C1=O           H
 1  CS(=O)(=O)Nc1ccccc1-c1ccc(N2C[C@H](O)C[C@@H](NC(=O)Nc3ccc(Cl)cn3)C2=O)cc1           M
 2  COc1ccc(NC(=O)N[C@@H]2CCCN(c3ccc(-c4ccccc4NS(C)(=O)=O)cc3)C2=O)c(F)c1           M
 3  NC(=O)c1ccc(-c2ccc(N3CCCC(NC(=O)Nc4ccc(C(F)(F)F)cc4)C3=O)cc2)cc1 (centres unmarked)           H
 4  Cc1cnc(NC(=O)N[C@@H]2CCCN(c3ccc(-c4ccccc4NS(C)(=O)=O)cc3F)C2=O)cn1           H
 5  CS(=O)(=O)Nc1ccccc1-c1ccc(N2C[C@H](O)C[C@@H](NC(=O)Nc3ccc(Cl)cc3)C2=O)cc1           L
 6  CS(=O)(=O)Nc1ccccc1-c1ccc(N2C[C@H](O)C[C@@H](NC(=O)Nc3ccc(C(F)(F)F)cc3)C2=O)cc1           M
 7  Cc1ccncc1-c1ccc(N2CCCC(NC(=O)Nc3ccc(C(F)(F)F)cc3)C2=O)cc1 (centres unmarked)           H
 8  CS(=O)(=O)Nc1ccccc1-c1ccc(N2CCC[C@@H](NC(=O)Nc3ccc(C(F)(F)F)cn3)C2=O)cc1           H
 9  NC(=O)c1ccccc1-c1ccc(N2CCC[C@@H](NC(=O)Nc3ccc(F)cc3)C2=O)cc1           H
10  O=C(Nc1ccc(C(F)(F)F)cc1)N[C@@H]1CCCN(c2ccc(-c3cncc(N4CCOCC4)c3)cc2)C1=O           M
11  O=C(Nc1ccc(C(F)(F)F)cc1)NC1CCCN(c2ccc(-c3ccccc3)cc2)C1=O (centres unmarked)           M
12  CCOc1ncccc1-c1ccc(N2CCC[C@@H](NC(=O)Nc3ccc(C(F)(F)F)cc3)C2=O)cc1           M
13  CS(=O)(=O)Nc1ccccc1-c1ccc(N2CCC[C@@H](NC(=O)Nc3ccc(C(F)(F)F)cc3F)C2=O)cc1           M
14  Cc1ccc(NC(=O)N[C@@H]2CCCN(c3ccc(-c4ccccc4C(N)=O)cc3)C2=O)c(C)c1           H
15  CS(=O)(=O)Nc1ccccc1-c1cc(F)c(N2CCC[C@@H](NC(=O)Nc3ccc(Cl)cc3)C2=O)c(F)c1           M
16  COc1ccc(NC(=O)NC2CCCN(c3ccc(-c4ccccc4S(C)(=O)=O)cc3F)C2=O)cc1 (centres unmarked)           M
17  CS(=O)(=O)c1ccccc1-c1ccc(N2CCCC(NC(=O)Nc3ccc(Cl)nn3)C2=O)c(F)c1 (centres unmarked)           H
18  O=C(Nc1ccc(Cl)cc1)N[C@@H]1CCCN(c2ccc(-c3ccccc3CO)cc2)C1=O           L
19  CS(=O)(=O)Nc1ccccc1-c1ccc(N2CCC[C@@H](NC(=O)Nc3ccc(Cl)cc3F)C2=O)c(Cl)c1           M
20  CS(=O)(=O)Nc1ccccc1-c1ccc(N2CCC[C@@H](NC(=O)Nc3ccc(Cl)cc3F)C2=O)cc1           L
21  NC(=O)c1ccccc1-c1ccc(N2CCC[C@@H](NC(=O)Nc3ccc(Cl)cc3)C2=O)c(F)c1           L
22  CS(=O)(=O)Nc1ccccc1-c1ccc(N2CCC[C@@H](NC(=O)Nc3ccc(OC(F)F)nc3)C2=O)cc1           H
23  N#Cc1ccccc1-c1ccc(N2CCC[C@@H](NC(=O)Nc3ccc(Cl)cc3)C2=O)cc1           L
24  CS(=O)(=O)Nc1ccccc1-c1ccc(N2C[C@H](O)C[C@H](NC(=O)Nc3ncc(Cl)cc3F)C2=O)cc1           M
25  CC(C)(C)NS(=O)(=O)c1ccccc1-c1ccc(N2CCC[C@@H](NC(=O)Nc3ccc(Cl)cc3)C2=O)cc1           L
26  NCc1cccc(-c2ccc(N3CCC[C@@H](NC(=O)Nc4ccc(Cl)cc4)C3=O)cc2)c1F           H

* * *

# log10 EC50 annotations
Target or test system: human FPR1 (Homo sapiens (Human))
Assay info: FPR1 cyclic adenosine monophosphate (cAMP) assay
Condition context: CHO cells overexpressing human FPR1; inhibition of forskolin (10 μM) stimulated cAMP; read-out: hFPR1 cAMP EC50
Result type: log10 EC50 (log10 of the value in nM)

>>> df
                                   compound  experimental_result
0  COc1cc(-c2ccccc2NS(C)(=O)=O)ccc1N1CCC[C@@H](NC(=O)Nc2ncc(C(F)(F)F)cc2F)C1=O                 3.52
1  CN(c1ncccc1-c1ccc(N2CCC[C@@H](NC(=O)Nc3ccc(C(F)(F)F)cc3)C2=O)cc1)S(C)(=O)=O                 1.18
2  CS(=O)(=O)c1ccc(-c2ccc(N3CCCC(NC(=O)Nc4ccc(C(F)(F)F)cc4)C3=O)cc2)cc1 (stereo not shown)                 3.32
3  Cc1cnc(NC(=O)NC2CCCN(c3ccc(-c4ccccc4S(C)(=O)=O)cc3F)C2=O)s1 (stereo not shown)                 2.32
4  CS(=O)(=O)c1ccccc1-c1ccc(N2CCCC(NC(=O)Nc3ccc(F)cc3)C2=O)c(F)c1 (stereo not shown)                 3.08
5  NC(=O)c1ccccc1-c1ccc(N2CCC[C@@H](NC(=O)Nc3ccc(C(F)(F)F)cc3)C2=O)cc1                 2.18
6  O=C(Nc1ccc(C(F)(F)F)cc1)N[C@H]1CCCN(c2ccc(-c3ccccc3CO)cc2)C1=O                 2.45

* * *

Target or test system: human FPR2 (Homo sapiens (Human))
Sequence (P25090 whole entry): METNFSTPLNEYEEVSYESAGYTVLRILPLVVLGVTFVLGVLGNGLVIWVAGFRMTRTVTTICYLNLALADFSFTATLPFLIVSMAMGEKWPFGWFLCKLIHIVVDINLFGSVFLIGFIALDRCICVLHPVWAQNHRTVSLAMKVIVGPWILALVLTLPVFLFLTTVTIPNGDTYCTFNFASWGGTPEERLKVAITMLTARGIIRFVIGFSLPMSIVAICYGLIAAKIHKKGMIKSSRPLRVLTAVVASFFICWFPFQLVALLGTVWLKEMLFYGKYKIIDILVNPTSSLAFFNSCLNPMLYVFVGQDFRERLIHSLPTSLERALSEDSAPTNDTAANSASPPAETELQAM
Assay info: FPR2 cyclic adenosine monophosphate (cAMP) assay
Assay type: cell-based
Condition context: hFPR2 Assay, CHO cells overexpressing human FPR2; read-out: hFPR2 agonist activity EC50
Result type: EC50

In [3]: df
Out[3]:
                                   molecule  result_type  experimental_result
0  CS(=O)(=O)Nc1ccccc1-c1ccc(N2CCC[C@@H](NC(=O)Nc3ccc(Cl)cc3)C2=O)cc1OC(F)(F)F [Example 300]         EC50           5 to 40 nM
1  CS(=O)(=O)Nc1cccc(-c2ccc(N3CCC[C@@H](NC(=O)Nc4ccc(Cl)cc4)C3=O)cc2)c1F [Example 278]         EC50               ≤ 5 nM
2  CS(=O)(=O)Nc1c(F)cccc1-c1ccc(N2CCC[C@@H](NC(=O)Nc3ccc(Cl)cc3)C2=O)cc1 [Example 279]         EC50               ≤ 5 nM
3  N#Cc1ccccc1-c1ccc(N2CCC[C@@H](NC(=O)Nc3cnc(Cl)cn3)C2=O)c(F)c1F [Example 275]         EC50               ≤ 5 nM
4  CC(N)c1cccc(-c2ccc(N3CCC[C@@H](NC(=O)Nc4ccc(C(F)(F)F)cn4)C3=O)c(F)c2F)c1 (stereo partly shown) [Example 280]         EC50           5 to 40 nM
5  CC(N)c1cccc(-c2ccc(N3CCC[C@@H](NC(=O)Nc4ccc(Cl)cc4F)C3=O)c(F)c2F)c1 (stereo partly shown) [Example 274]         EC50               ≤ 5 nM
6  O=C(Nc1ccc(Cl)cn1)N[C@@H]1C[C@@H](O)CN(c2ccc(-c3ccccc3F)cc2)C1=O [Example 269]         EC50           5 to 40 nM

* * *

Target or test system: human FPR2 (Homo sapiens (Human))
Assay info: FPR2 cyclic adenosine monophosphate (cAMP) assay
Type: cell-based
Condition context: CHO cells overexpressing human FPR2; inhibition of forskolin (5 μM) stimulated cAMP; read-out: hFPR2 cAMP2 EC50
pEC50: −log10 of the molar value.
# pEC50 annotations
Result type: pEC50

>>> print(df.to_string())
                                    compound  experimental_result
 0  NC(=O)c1ccccc1-c1ccc(N2CCC[C@@H](NC(=O)Nc3ccc(Cl)cc3)C2=O)c(F)c1                 9.05
 1  Cc1cnc(NC(=O)NC2CCCN(c3ccc(-c4ccccc4S(C)(=O)=O)cc3F)C2=O)s1 (stereo not drawn)                 6.42
 2  CS(=O)(=O)Nc1ccccc1-c1ccc(N2C[C@H](O)C[C@@H](NC(=O)Nc3ccc(C(F)(F)F)cc3)C2=O)cc1                 9.12
 3  COc1cnc(NC(=O)N[C@@H]2CCCN(c3ccc(-c4ccccc4NS(C)(=O)=O)c(F)c3)C2=O)c(F)c1                 7.66
 4  COc1ccc(NC(=O)NC2CCCN(c3ccc(-c4ccccc4S(C)(=O)=O)cc3F)C2=O)cc1 (stereo not drawn)                 8.00
 5  CS(=O)(=O)Nc1ccccc1-c1ccc(N2CCC[C@@H](NC(=O)Nc3ccc(Cl)cc3F)C2=O)cc1                 9.89
 6  O=C(Nc1ccc(C(F)(F)F)cc1)NC1CCCN(c2ccc(-c3ccccc3)cc2)C1=O (stereo not drawn)                 8.01
 7  CS(=O)(=O)Nc1ccccc1-c1ccc(N2CCC[C@@H](NC(=O)Nc3ccc(C(F)(F)F)cc3)C2=O)cc1                 9.49
 8  CCOc1ncccc1-c1ccc(N2CCC[C@@H](NC(=O)Nc3ccc(C(F)(F)F)cc3)C2=O)cc1                 8.03
 9  CS(=O)(=O)Nc1ccccc1-c1ccc(N2CCC[C@@H](NC(=O)Nc3ccc(Cl)cc3)C2=O)cc1                 9.85
10  CS(=O)(=O)Nc1ccccc1-c1cc(F)c(N2CCC[C@@H](NC(=O)Nc3ccc(Cl)cc3)C2=O)c(F)c1                 9.23
11  NCc1cccc(-c2ccc(N3CCC[C@@H](NC(=O)Nc4ccc(Cl)cc4)C3=O)cc2)c1F                 8.07
12  O=C(Nc1ccc(C(F)(F)F)cc1)N[C@@H]1CCCN(c2ccc(-c3cncc(N4CCOCC4)c3)cc2)C1=O                 8.10
13  CS(=O)(=O)c1ccccc1-c1ccc(N2CCCC(NC(=O)Nc3ccc(F)cc3)C2=O)c(F)c1 (stereo not drawn)                 6.25
14  O=C(Nc1ccc(C(F)(F)F)cc1)N[C@H]1CCCN(c2ccc(-c3ccccc3CO)cc2)C1=O                 8.04
